Tested on: BDF1 mice, P388 leukemia ip, median survival T/C
Experiment: NCI In Vivo Anticancer Drug Screen. Data for tumor model P388 Leukemia (intraperitoneal) in B6D2F1 (BDF1) mice
Conditions: endpoint: median survival time; dose: 100.0 mg/kg/injection; schedule: Q01DX001 (ip); vehicle: saline with Tween-80; higher = longer survival
Inconclusive results and toxic doses are left out.
Listed compounds paired with reported T/C

Here are 6 compounds together with their reported answers.
| COMPOUND | T/C |
| --- | --- |
| CCCCCCCCCCCCSCCSCCSCCCCCCCCCCCC | 95 % of control |
| O=C(Cl)c1cc2ccccc2o1 | 91 % of control |
| CCOC(=O)c1cn(COC)c2nc(SC)nc(NC(C)=O)c2c1=O | 105 % of control |
| Cc1ccc(C)c2c1[nH]c1c(C)c3ccncc3c(C)c12 | 96 % of control |
| COc1cc(Nc2ncnc(N)c2[N+](=O)[O-])cc(OC)c1OC | 87 % of control |
| CC(=O)NC(N)=O | 100 % of control |

Request: Form field: reported T/C of NC(CS(=O)(=O)c1ccc(N(CCCl)CCCl)cc1)C(=O)O (configuration not stated)
Response: 108 % of control

----------
System: BDF1 mice, P388 leukemia ip, median survival T/C
Assay: NCI In Vivo Anticancer Drug Screen. Data for tumor model P388 Leukemia (intraperitoneal) in B6D2F1 (BDF1) mice
Details: endpoint: median survival time; dose: 12.5 mg/kg/injection; schedule: Q01DX009 (ip); vehicle: saline with Tween-80
Toxic doses and inconclusive results are not listed. The calls were made as follows: active = survival T/C of 150% or more; inactive = T/C below 125% in these data.
Choose the fitting class; nothing outside True = active, False = inactive is accepted.

Request: Test call for this compound, please: `O=C1c2cccc3cc([N+](=O)[O-])cc(c23)C(=O)N1CCN1CCCC1`
Response: True

Request: Test call for this compound, please: `Nc1ncnc2[nH]c(=O)[nH]c12`
Response: False

Request: Test call for this compound, please: `COC(=O)/C(=C1/OC(=O)C(c2ccccc2)=C1O)c1ccccc1`
Response: False

----------
Tested on: BDF1 mice, P388 leukemia ip, median survival T/C
Assay: NCI In Vivo Anticancer Drug Screen. Data for tumor model P388 Leukemia (intraperitoneal) in B6D2F1 (BDF1) mice
Settings: endpoint: median survival time; dose: 400.0 mg/kg/injection; schedule: Q01DX009 (ip); vehicle: other; higher = longer survival
Description: The antitumor activity of compounds was measured in mice bearing transplantable tumors. Survival or tumor size were measured and the results are expressed as the measurement made in the treated group (T) divided by the measurement made in the vehicle treated control group (C). The tumor model used in this assay is P388 Leukemia (intraperitoneal) in B6D2F1 (BDF1) mice
Toxic doses and inconclusive results are not listed.
Listed molecules paired with reported T/C

| MOLECULE | T/C |
| --- | --- |
| CC(=O)N(CCN(Cc1ccc(Oc2ccc([N+](=O)[O-])cc2[N+](=O)[O-])cc1)C(C)=O)CCN(Cc1ccc(Oc2ccc([N+](=O)[O-])cc2[N+](=O)[O-])cc1)C(C)=O | 103 % of control |
| CCCCCCCCCCCC[Si](CCCCCCCCCCCC)(c1ccccc1)c1ccccc1 | 109 % of control |
| CNc1ccc(OC)cc1 | 104 % of control |

Request: For the record Cc1cc(O)c2c(c1)OC1(C)CCC3C(C)(C)CCCC34COC2C14 (centres undefined) , what value of T/C is listed for BDF1 mice, P388 leukemia ip, median survival T/C?
Response: 101 % of control
